meta.source: PubChem BioAssay (NCI)

Test: NCI Yeast Anticancer Drug Screen. Data for the sgs1 mgt1 strain (AID 161)
Conditions: S. cerevisiae sgs1 mgt1 strain, at 50.0 µM
About 79,000 compounds went through this panel and 15% of them were active in at least one assay; those are over-represented in the sample as a whole. Active and inactive are the calls of the source. Rule as the data show it: active = growth inhibition above about 70%; inactive = the rest.
Possible outcomes: active, inactive

molecule=Cn1c(COc2ccc(/C=N\N3CCN(/N=C\c4ccc(OCc5c[n+]6ccccc6n5C)cc4)CC3)cc2)c[n+]2ccccc12 class_assignment=inactive
molecule=COc1cc2c(cc1O)C(=O)CCCC2 class_assignment=inactive
molecule="Cc1ccccc1NC(=O)CC(=O)N1N=C(N(CCC#N)c2ccccc2Cl)CC1c1ccccc1 (stereo not drawn)" class_assignment=inactive
molecule="CC12CCC(=O)C=C1CCC1C2CCC2(C)C1CCC2(O)C(=O)Cn1c(=O)cc[nH]c1=O (stereo not drawn)" class_assignment=inactive
molecule="COC(=O)C1=NOC(Cc2ccccc2)C1 (stereo not drawn)" class_assignment=inactive
molecule="CS(=O)(=O)OCC1NC(=O)C(COS(C)(=O)=O)NC1=O (stereo not drawn)" class_assignment=inactive
molecule=O=[N+]([O-])c1cc(C(F)(F)F)ccc1S(=O)(=O)c1ccccc1 class_assignment=inactive
molecule="COc1ccc(C(=O)C(O)c2ccc(OC)cc2)cc1 (stereo not drawn)" class_assignment=inactive
molecule="CC1CCCN2C(=O)CN(Cc3ccccc3)CC(=O)N12 (stereo not drawn)" class_assignment=inactive
molecule=O=[N+]([O-])c1cccc2c1ccc1nonc12 class_assignment=inactive
molecule=O=[N+]([O-])/C(C(Cl)=C(Cl)Cl)=C1\NCCS1 class_assignment=inactive
molecule=Oc1cccc(N=Cc2ccccc2O)c1 class_assignment=inactive
molecule=O=C1O/C(=C2/OC(=O)c3ccccc32)c2ccccc21 class_assignment=inactive
molecule="COc1cccc(C2c3cc4c(cc3OC(C)(OC)C2C)OCO4)c1 (stereo not drawn)" class_assignment=inactive
molecule="CCOC(=O)C(C(=O)c1cccnc1)C(C(=O)OCC)C(=O)c1cccnc1 (stereo not drawn)" class_assignment=inactive
molecule="CCOCCOCCOC12C(=O)C(Cl)=C(Cl)C(=O)C13C1CC2C(Cl)C13 (stereo not drawn)" class_assignment=active
molecule="CC1(C=O)CCCC2(C)[C@@H]1CCC13CC(CO)C(CC[C@H]12)C3 (stereo partly drawn)" class_assignment=inactive
molecule=O=[N+]([O-])c1ccc(NC2CCCCC2)nc1 class_assignment=inactive
molecule=NC(N)=NC(N)=Nc1ccc(C(=O)O)cc1 class_assignment=inactive
molecule=COc1cc(/C=C/C(=O)c2ccccc2O)cc(OC)c1OC class_assignment=inactive
molecule=O=C(O)C(=Cc1cccc2ccc3ccccc3c12)C(=O)O class_assignment=inactive
molecule="CCCCOC1NC(=O)NC(=O)C1(F)C(=O)OCC (stereo not drawn)" class_assignment=inactive
molecule="ClC1(c2ccccc2)c2ccccc2C(Cl)(c2ccccc2)c2ccccc21 (stereo not drawn)" class_assignment=inactive
molecule="C[C@]12CCC(=O)C=C1CC[C@@H]1C2CC[C@]2(C)Nc3[nH]ncc3CC12 (stereo partly drawn)" class_assignment=inactive
molecule=CN(C)c1ncnc2cn[nH]c12 class_assignment=inactive
molecule="C1=NC(c2ccccc2)=CN(C2CCCCC2)C1(c1ccccc1)C1CCCCC1 (stereo not drawn)" class_assignment=active
molecule=CC(=O)c1ccc(Cl)c(-n2cccc2)c1 class_assignment=inactive
molecule=CC1=CC(=O)/C(=C\c2ccc3c(c2)OCO3)C(C)(C)C1 class_assignment=inactive
molecule=CCOC(=O)c1c(C(=O)Nc2ccccc2)c(-c2ccccc2)n(NC(=O)c2cccc(Cl)c2)c1C class_assignment=inactive
molecule=COC(=O)c1cccc2c1-c1ccccc1C2=O class_assignment=inactive
molecule="CC(C(/C=N/NC(N)=S)=N/NC(N)=S)N1C(=O)c2ccccc2C1=O (stereo not drawn)" class_assignment=inactive
molecule="CC1CC(=O)C(CC(=O)O)[C@H]1C(C(=O)C(=O)Nc1cc(Cl)ccc1Cl)[N+](=O)[O-] (stereo partly drawn)" class_assignment=inactive
molecule="CC1CNC(=S)N(c2cccc3ccccc23)C1=O (stereo not drawn)" class_assignment=inactive
molecule=CCOCC/C(=N\Nc1ccc([N+](=O)[O-])cc1[N+](=O)[O-])c1ccccc1 class_assignment=inactive
molecule="CC(=O)NC(CCCCNC(=O)OCc1ccccc1)C(=O)O (stereo not drawn)" class_assignment=inactive
molecule=COC(=O)c1nc(=S)[nH]c(C(=O)OC)c1C(=O)/C=C/c1ccccc1 class_assignment=inactive
molecule=CC(C)N(CC(=O)O)CC(=O)O class_assignment=inactive
molecule="O=C1Nc2cccc3cc(NCC(O)CCl)cc1c23 (stereo not drawn)" class_assignment=inactive
molecule="O=C(CC(c1ccccc1)N1CCCCC1)OCC1CCCO1 (stereo not drawn)" class_assignment=inactive
molecule=CS(=O)(=O)Oc1ccc2cc(Br)ccc2c1 class_assignment=inactive
molecule=c1csc(-c2cc(-c3ccsc3)c(-c3ccsc3)s2)c1 class_assignment=inactive
molecule=CC(C)(C)NC(=O)Nc1nccs1 class_assignment=inactive
molecule="CC(C)(C)CC(C)(C(=O)O)C(C)(C)C (stereo not drawn)" class_assignment=inactive
molecule=CCN(CC)[Si](C)(C)C class_assignment=inactive
molecule=C/C(COC(=O)c1cc(C)nc2ccccc12)=N\O class_assignment=inactive
molecule="Nc1nc2c(nc(Br)n2C2OC(CO)C(O)C2O)c(=O)[nH]1 (stereo not drawn)" class_assignment=inactive
molecule=N=C(N=C(N)N)N1CCOCC1 class_assignment=inactive
molecule="C[S+]1CC2C3CC(C#N)C(C3)C2C1 (stereo not drawn)" class_assignment=inactive
